# ASSAY_SYSTEM: Dihydroorotate dehydrogenase (Plasmodium falciparum)
# Sequence (Q54A96 whole entry): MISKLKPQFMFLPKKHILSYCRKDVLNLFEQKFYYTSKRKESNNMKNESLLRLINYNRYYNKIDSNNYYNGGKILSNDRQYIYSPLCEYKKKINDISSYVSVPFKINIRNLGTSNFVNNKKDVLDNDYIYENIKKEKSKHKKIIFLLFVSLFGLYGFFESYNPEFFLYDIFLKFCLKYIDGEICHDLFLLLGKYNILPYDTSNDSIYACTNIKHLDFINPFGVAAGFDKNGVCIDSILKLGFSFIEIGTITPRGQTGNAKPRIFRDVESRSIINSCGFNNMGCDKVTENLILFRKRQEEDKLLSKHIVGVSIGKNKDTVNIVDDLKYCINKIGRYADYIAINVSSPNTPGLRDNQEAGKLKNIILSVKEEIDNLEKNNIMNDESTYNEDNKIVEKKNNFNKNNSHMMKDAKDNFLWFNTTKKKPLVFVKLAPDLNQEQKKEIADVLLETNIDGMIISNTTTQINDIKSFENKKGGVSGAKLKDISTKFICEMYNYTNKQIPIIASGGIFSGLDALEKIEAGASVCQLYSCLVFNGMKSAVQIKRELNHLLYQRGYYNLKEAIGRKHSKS
# PROTOCOL_TEXT: Inhibition of His6-tagged recombinant Plasmodium falciparum dihydroorotate dehydrogenase expressed in Escherichia coli using L-dihydroorotate as substrate after 5 to 10 mins by DCIP dye-based assay
// reported IC50 for each item listed
Note: unit µM is implicit; provide only the numeric part.

Below: 3 compounds and their reported IC50.
{"COMPOUND": "Cc1cc(NCCc2ccccc2)n2ncnc2n1", "UNIT_INFO": "µM", "IC50": 15}
{"COMPOUND": "Cc1cc(Nc2ccc(C3CC3)cc2)n2ncnc2n1", "UNIT_INFO": "µM", "IC50": 0.42}
{"COMPOUND": "Cc1cc(Nc2ccc(C(F)(F)F)c(C(F)(F)F)c2)n2ncnc2n1", "UNIT_INFO": "µM", "IC50": 0.54}

Give recorded IC50. Cc1cc(Nc2ccc(N(C)C)cc2)n2ncnc2n1
0.82

Read the entry Cc1cc(Nc2ccc(OCc3ccccc3)cc2)n2ncnc2n1 and write its reported IC50.
5.4

Look up IC50 of Cc1cc(NC2Cc3ccc(F)cc3C2)n2ncnc2n1 (stereo not drawn) and report it.
0.61

Output IC50 of CCc1ccc(Nc2cc(C)nc3ncnn23)cc1
0.61

Output IC50 of CCCCCCCc1ccc(Nc2cc(C)nc3ncnn23)cc1
24

---

# Tested on: Liver microsomes
# PROTOCOL_TEXT: Intrinsic clearance in human liver microsome assessed per mg of protein at 1 uM after 60 mins by LC-MS analysis
# Format: ADME
# MEASUREMENT_SETUP: microsomes, 1 h, 1 µM
Is CL at least 40 µL/min/mg? Then true. If not, false.

{"COMPOUND": "Cc1cc(Nc2ccc(N(C)C)cc2)n2ncnc2n1", "LABEL": "false"}
{"COMPOUND": "Cc1cc(Nc2ccc3c(c2)CCCC3)n2ncnc2n1", "LABEL": "true"}
{"COMPOUND": "Cc1cc(Nc2ccc3c(c2)CCC3)n2ncnc2n1", "LABEL": "true"}
{"COMPOUND": "CCc1ccc(Nc2cc(C)nc3ncnn23)cc1", "LABEL": "true"}
{"COMPOUND": "CCCCc1ccc(Nc2cc(C)nc3ncnn23)cc1", "LABEL": "false"}
{"COMPOUND": "Cc1cc(Nc2cc(F)c(C(F)(F)F)c(F)c2)n2ncnc2n1", "LABEL": "false"}
{"COMPOUND": "Cc1cc(NC2Cc3ccccc3C2)n2ncnc2n1", "LABEL": "false"}
{"COMPOUND": "Cc1cc(Nc2ccc(C(C)C)cc2)n2ncnc2n1", "LABEL": "false"}
{"COMPOUND": "Cc1cc(NC2CCc3ccccc3C2)n2ncnc2n1 (centres undefined)", "LABEL": "false"}
{"COMPOUND": "C=Cc1ccc(Nc2cc(C)nc3ncnn23)cc1", "LABEL": "false"}

Please check the record Cc1cc(Nc2ccc(C(C)(C)C)cc2)n2ncnc2n1 and state if its CL is at or above 40 µL/min/mg.
true

Does Cc1cc(Nc2ccc3sccc3c2)n2ncnc2n1 have a reported CL of at least 40 µL/min/mg?
true

Dear colleague, could you confirm whether Cc1cc(Nc2ccc3c(c2)OCO3)n2ncnc2n1 has CL at or above 40 µL/min/mg?
false

Check this compound for CL at or above 40 µL/min/mg: CCCc1ccc(Nc2cc(C)nc3ncnn23)cc1
false

Quick check: does Cc1cc(Nc2ccc(C(C)(C)C)c(F)c2)n2ncnc2n1 have CL greater than or equal to 40 µL/min/mg?
false
